In this section, each of the variants is paired with its reported enrichment ratio.
B1: PhoQ; a variant is named by its letters at X, in order, P23837 (parent)
chain: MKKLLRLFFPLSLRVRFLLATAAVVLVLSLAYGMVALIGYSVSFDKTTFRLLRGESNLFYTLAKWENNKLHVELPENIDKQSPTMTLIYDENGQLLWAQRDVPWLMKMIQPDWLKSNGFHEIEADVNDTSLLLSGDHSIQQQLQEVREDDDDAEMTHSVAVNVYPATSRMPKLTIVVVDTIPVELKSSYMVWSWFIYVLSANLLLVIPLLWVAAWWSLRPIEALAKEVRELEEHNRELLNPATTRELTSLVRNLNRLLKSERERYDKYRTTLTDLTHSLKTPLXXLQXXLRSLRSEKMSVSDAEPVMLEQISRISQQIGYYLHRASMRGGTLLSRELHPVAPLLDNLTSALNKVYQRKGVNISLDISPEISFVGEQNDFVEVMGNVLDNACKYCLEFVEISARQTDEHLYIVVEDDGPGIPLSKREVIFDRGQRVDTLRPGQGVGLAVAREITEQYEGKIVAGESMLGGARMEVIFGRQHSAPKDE

variants of: B1; test: enrichment ratio after two sorts for PhoP signalling (ratio (wild type AVST 3.29)); higher = more functional; settings: with PhoP (E. coli)
Over roughly 140,000 sequences, “enrichment ratio after two sorts for PhoP signalling” has its median near 0; the highest 2% begin near 11. This is one part of a sample in which the highest values are shown more often than they occur.
endpoint_name: enrichment ratio

{"sequence_variant": "AANL", "endpoint_name": "enrichment ratio", "result_comparator": "≤", "recorded_number": 0.25}
{"sequence_variant": "SPLL", "endpoint_name": "enrichment ratio", "result_comparator": "≤", "recorded_number": 0.25}
{"sequence_variant": "VMEP", "endpoint_name": "enrichment ratio", "result_comparator": "≤", "recorded_number": 0.25}
{"sequence_variant": "SFLL", "endpoint_name": "enrichment ratio", "result_comparator": "=", "recorded_number": 3.56}
{"sequence_variant": "SALL", "endpoint_name": "enrichment ratio", "result_comparator": "=", "recorded_number": 18.6}
{"sequence_variant": "DCDV", "endpoint_name": "enrichment ratio", "result_comparator": "≤", "recorded_number": 0.25}
{"sequence_variant": "VYLL", "endpoint_name": "enrichment ratio", "result_comparator": "≤", "recorded_number": 0.25}
{"sequence_variant": "NSIS", "endpoint_name": "enrichment ratio", "result_comparator": "≤", "recorded_number": 0.25}
{"sequence_variant": "HNRG", "endpoint_name": "enrichment ratio", "result_comparator": "≤", "recorded_number": 0.25}
{"sequence_variant": "LEMV", "endpoint_name": "enrichment ratio", "result_comparator": "=", "recorded_number": 12.9}
{"sequence_variant": "HAQM", "endpoint_name": "enrichment ratio", "result_comparator": "≤", "recorded_number": 0.25}
{"sequence_variant": "STLL", "endpoint_name": "enrichment ratio", "result_comparator": "=", "recorded_number": 16.4}
{"sequence_variant": "KKLQ", "endpoint_name": "enrichment ratio", "result_comparator": "≤", "recorded_number": 0.25}
{"sequence_variant": "SVNH", "endpoint_name": "enrichment ratio", "result_comparator": "=", "recorded_number": 3.33}
{"sequence_variant": "MNQM", "endpoint_name": "enrichment ratio", "result_comparator": "≤", "recorded_number": 0.25}
{"sequence_variant": "NGLL", "endpoint_name": "enrichment ratio", "result_comparator": "=", "recorded_number": 3.87}
{"sequence_variant": "SVCS", "endpoint_name": "enrichment ratio", "result_comparator": "=", "recorded_number": 8.61}
{"sequence_variant": "VTSC", "endpoint_name": "enrichment ratio", "result_comparator": "≤", "recorded_number": 0.25}
{"sequence_variant": "MMSL", "endpoint_name": "enrichment ratio", "result_comparator": "=", "recorded_number": 6.66}
{"sequence_variant": "SSMD", "endpoint_name": "enrichment ratio", "result_comparator": "=", "recorded_number": 3.52}
{"sequence_variant": "AQIS", "endpoint_name": "enrichment ratio", "result_comparator": "=", "recorded_number": 13}
{"sequence_variant": "MLYS", "endpoint_name": "enrichment ratio", "result_comparator": "≤", "recorded_number": 0.25}
{"sequence_variant": "APLL", "endpoint_name": "enrichment ratio", "result_comparator": "≤", "recorded_number": 0.25}
{"sequence_variant": "KQLL", "endpoint_name": "enrichment ratio", "result_comparator": "≤", "recorded_number": 0.25}
{"sequence_variant": "LEEG", "endpoint_name": "enrichment ratio", "result_comparator": "≤", "recorded_number": 0.25}
{"sequence_variant": "LEGM", "endpoint_name": "enrichment ratio", "result_comparator": "≤", "recorded_number": 0.25}
{"sequence_variant": "NGSQ", "endpoint_name": "enrichment ratio", "result_comparator": "≤", "recorded_number": 0.25}
{"sequence_variant": "SVPI", "endpoint_name": "enrichment ratio", "result_comparator": "=", "recorded_number": 5.93}
{"sequence_variant": "LEWI", "endpoint_name": "enrichment ratio", "result_comparator": "=", "recorded_number": 2.42}
{"sequence_variant": "AACS", "endpoint_name": "enrichment ratio", "result_comparator": "=", "recorded_number": 17.3}
{"sequence_variant": "YEYI", "endpoint_name": "enrichment ratio", "result_comparator": "≤", "recorded_number": 0.25}
{"sequence_variant": "AACA", "endpoint_name": "enrichment ratio", "result_comparator": "=", "recorded_number": 7.7}
{"sequence_variant": "NNQM", "endpoint_name": "enrichment ratio", "result_comparator": "=", "recorded_number": 30}
{"sequence_variant": "ASAS", "endpoint_name": "enrichment ratio", "result_comparator": "=", "recorded_number": 15.3}
{"sequence_variant": "SCIM", "endpoint_name": "enrichment ratio", "result_comparator": "=", "recorded_number": 3.17}
{"sequence_variant": "ADIS", "endpoint_name": "enrichment ratio", "result_comparator": "≤", "recorded_number": 0.25}
{"sequence_variant": "NVPP", "endpoint_name": "enrichment ratio", "result_comparator": "≤", "recorded_number": 0.25}
{"sequence_variant": "QESL", "endpoint_name": "enrichment ratio", "result_comparator": "=", "recorded_number": 0.967}
{"sequence_variant": "KNRD", "endpoint_name": "enrichment ratio", "result_comparator": "≤", "recorded_number": 0.25}
{"sequence_variant": "LEMS", "endpoint_name": "enrichment ratio", "result_comparator": "=", "recorded_number": 8.78}
{"sequence_variant": "QEYS", "endpoint_name": "enrichment ratio", "result_comparator": "=", "recorded_number": 37}
{"sequence_variant": "ILLI", "endpoint_name": "enrichment ratio", "result_comparator": "≤", "recorded_number": 0.25}
{"sequence_variant": "NIYV", "endpoint_name": "enrichment ratio", "result_comparator": "≤", "recorded_number": 0.25}
{"sequence_variant": "MGLL", "endpoint_name": "enrichment ratio", "result_comparator": "=", "recorded_number": 14.3}
{"sequence_variant": "VTLL", "endpoint_name": "enrichment ratio", "result_comparator": "=", "recorded_number": 17.8}
{"sequence_variant": "AACI", "endpoint_name": "enrichment ratio", "result_comparator": "=", "recorded_number": 12.2}
{"sequence_variant": "ASAD", "endpoint_name": "enrichment ratio", "result_comparator": "≤", "recorded_number": 0.25}
{"sequence_variant": "ALLL", "endpoint_name": "enrichment ratio", "result_comparator": "=", "recorded_number": 8.77}
{"sequence_variant": "DNAA", "endpoint_name": "enrichment ratio", "result_comparator": "≤", "recorded_number": 0.25}
{"sequence_variant": "SSMR", "endpoint_name": "enrichment ratio", "result_comparator": "≤", "recorded_number": 0.25}
{"sequence_variant": "NESL", "endpoint_name": "enrichment ratio", "result_comparator": "≤", "recorded_number": 0.25}
{"sequence_variant": "LEMG", "endpoint_name": "enrichment ratio", "result_comparator": "=", "recorded_number": 11.8}
{"sequence_variant": "MCYS", "endpoint_name": "enrichment ratio", "result_comparator": "=", "recorded_number": 12.8}
{"sequence_variant": "LRMM", "endpoint_name": "enrichment ratio", "result_comparator": "≤", "recorded_number": 0.25}
{"sequence_variant": "NMFS", "endpoint_name": "enrichment ratio", "result_comparator": "≤", "recorded_number": 0.25}
{"sequence_variant": "AGSQ", "endpoint_name": "enrichment ratio", "result_comparator": "=", "recorded_number": 12.9}
{"sequence_variant": "LLYS", "endpoint_name": "enrichment ratio", "result_comparator": "≤", "recorded_number": 0.25}
{"sequence_variant": "PIIP", "endpoint_name": "enrichment ratio", "result_comparator": "≤", "recorded_number": 0.25}
{"sequence_variant": "MGGL", "endpoint_name": "enrichment ratio", "result_comparator": "=", "recorded_number": 4.99}
{"sequence_variant": "SSIE", "endpoint_name": "enrichment ratio", "result_comparator": "≤", "recorded_number": 0.25}
{"sequence_variant": "SVNG", "endpoint_name": "enrichment ratio", "result_comparator": "=", "recorded_number": 12.5}
{"sequence_variant": "ANLL", "endpoint_name": "enrichment ratio", "result_comparator": "=", "recorded_number": 13.4}
{"sequence_variant": "AQIV", "endpoint_name": "enrichment ratio", "result_comparator": "=", "recorded_number": 9.59}
{"sequence_variant": "YNLV", "endpoint_name": "enrichment ratio", "result_comparator": "=", "recorded_number": 1.85}
{"sequence_variant": "KMQM", "endpoint_name": "enrichment ratio", "result_comparator": "≤", "recorded_number": 0.25}
{"sequence_variant": "AFGE", "endpoint_name": "enrichment ratio", "result_comparator": "≤", "recorded_number": 0.25}
{"sequence_variant": "QKFY", "endpoint_name": "enrichment ratio", "result_comparator": "≤", "recorded_number": 0.25}
{"sequence_variant": "SSIS", "endpoint_name": "enrichment ratio", "result_comparator": "=", "recorded_number": 11.9}
{"sequence_variant": "MDSL", "endpoint_name": "enrichment ratio", "result_comparator": "≤", "recorded_number": 0.25}
{"sequence_variant": "MEYS", "endpoint_name": "enrichment ratio", "result_comparator": "=", "recorded_number": 25.6}
{"sequence_variant": "LVPE", "endpoint_name": "enrichment ratio", "result_comparator": "≤", "recorded_number": 0.25}
{"sequence_variant": "IACL", "endpoint_name": "enrichment ratio", "result_comparator": "≤", "recorded_number": 0.25}
{"sequence_variant": "SVSK", "endpoint_name": "enrichment ratio", "result_comparator": "=", "recorded_number": 12.7}
{"sequence_variant": "TVNP", "endpoint_name": "enrichment ratio", "result_comparator": "≤", "recorded_number": 0.25}
